Experiment: BET inhibitor-based combinations targeting novel dependencies in MECOM-rearranged (r) AML: SET-2 cell line (AID 2202231); note: potency is the fitted concentration of half-maximal effect; nearly all actives have a fitted effect of over 35% in size
Conditions: SET-2 AML cells viability, CellTiter-Glo luminescence, 48 h
Results filed as inconclusive are left out. Active and inactive are the calls of the source. Calls come from the whole dose curve; as a rule, active = well fitted inhibition curve with a large enough effect; inconclusive = small, poorly fitted or top-dose-only effect; inactive = no such curve, though single readings can be large or run the other way.
value_type: Potency

Recorded Potency, per entry:
COC(=O)C[C@](O)(CCCC(C)(C)O)C(=O)O[C@@H]1C(OC)=C[C@]23CCCN2CCc2cc4c(cc2[C@H]13)OCO4	0.148 µM (active)
CNC(=O)c1ccc(Nc2ncc(C(F)(F)F)c(NCc3nccnc3N(C)S(C)(=O)=O)n2)cc1	3.32 µM (active)
COc1c(C)c2c(c(O)c1C/C=C(\C)CCC(=O)OCCN1CCOCC1)C(=O)OC2	1.32 µM (active)
O=C(C(c1ccccc1)c1ccccc1)N1CCN(CC(O)COc2cccc3ncccc23)CC1 (stereo not given)	20.9 µM (active)

# batch: return Potency for each of the 3 molecules below
1. C[C@@H](NCc1cc2ccccc2[nH]1)c1cccc2ccccc12
2. CN(C)Cc1c(C(=O)NCCOc2ccc(C(=O)NO)cc2)oc2ccccc12
3. CCc1ccc(OCc2ccccc2C(=O)Nc2ccc3nc(C)cc(N)c3c2)cc1

Result:
["16.6 µM (active)", "0.662 µM (active)", "6.61 µM (active)"]

# batch: return Potency for each of the 3 molecules below
1. CCN1CCN(Cc2ccc(NC(=O)c3ccc(C)c(NC(=O)c4cncc(-c5cccs5)c4)c3)cc2C(F)(F)F)CC1
2. O=C(Nc1nc2cccc(-c3ccc(CN4CCS(=O)(=O)CC4)cc3)n2n1)C1CC1
3. O=C(Nc1cc(C(F)(F)F)cc(C(F)(F)F)c1)c1cc(Cl)ccc1O

Result:
5.9 µM (active)
18.6 µM (active)
2.35 µM (active)

# batch: return Potency for each of the 8 molecules below
1. NC(=O)Nc1sc(-c2ccc(F)cc2)cc1C(N)=O
2. COc1ccc(N(C)c2nc(C)nc3ccccc23)cc1
3. COC(=O)Nc1nc2ccc(Sc3ccccc3)cc2[nH]1
4. COc1ccc2cc3[n+](cc2c1OC)CCc1cc2c(cc1-3)OCO2
5. CNc1nccc(-c2cccnc2Oc2cc(C(=O)Nc3cccc(C(F)(F)F)c3)ccc2C)n1
6. C#CC[C@H](c1nc2cc(Cl)ccc2c(=O)n1Nc1ccccc1)N(CCCN)C(=O)c1cccc(Cl)c1F
7. CC(C)C[C@H](CO)Nc1nc(S[C@@H](C)c2ccccc2)nc2nc(N)sc12
8. Cc1cc2c(C(C)C)c(O)c(O)c(C=O)c2c(O)c1-c1c(C)cc2c(C(C)C)c(O)c(O)c(C=O)c2c1O

Result:
1. 5.9 µM (active)
2. 0.0118 µM (active)
3. 1.18 µM (active)
4. 16.6 µM (active)
5. 16.6 µM (active)
6. 10.5 µM (active)
7. 23.5 µM (active)
8. 9.34 µM (active)

# batch: return Potency for each of the 5 molecules below
1. CC(=O)Nc1ccc(C(=O)Nc2ccccc2N)cc1
2. CCN(CC)CCCC(C)Nc1c2ccc(Cl)cc2nc2ccc(OC)cc12 (stereo not given)
3. O=C(/C=C/c1cccc(S(=O)(=O)Nc2ccccc2)c1)NO
4. COc1cc2nc(-c3cc(F)ccc3O)nc(N[C@@H]3CNC[C@H]3C(C)(C)O)c2cc1OC
5. N#Cc1c(NC(=O)c2cccc3ccccc23)sc2c1CCCC2

Result:
1: 7.42 µM (active); 2: 7.42 µM (active); 3: 0.263 µM (active); 4: 6.61 µM (active); 5: 0.525 µM (active)

# batch: return Potency for each of the 8 molecules below
1. Cc1cc(Nc2nc(N[C@@H](C)c3ncc(F)cn3)ncc2Cl)n[nH]1
2. COc1cc2ncnc(Nc3ccc(F)c(Cl)c3)c2cc1NC(=O)/C=C/CN1CCCCC1
3. N#Cc1ccnc(Nc2cc(C3CCN(C4COC4)CC3)cc(N3CCC(F)(F)C3)n2)c1
4. COc1cc(N2CCN(C)CC2)ccc1Nc1nccc(-c2cn(C)c3cnccc23)n1
5. O=C(Nc1ccccc1-c1cn2c(CN3CCNCC3)csc2n1)c1cnc2ccccc2n1
6. NC(=O)c1ncn([C@@H]2O[C@H](CO)[C@@H](O)[C@H]2O)n1
7. NC(=O)c1cnc(N[C@@H]2CCCC[C@@H]2N)nc1Nc1cccc(-n2nccn2)c1
8. CCN(CC)CCNC(=O)c1c(C)[nH]c(/C=C2\C(=O)Nc3ccc(F)cc32)c1C

Result:
1.48 µM (active)
8.33 µM (active)
3.72 µM (active)
20.9 µM (active)
8.33 µM (active)
20.9 µM (active)
23.5 µM (active)
16.6 µM (active)

# batch: return Potency for each of the 6 molecules below
1. Nc1nc(F)nc2c1ncn2[C@@H]1O[C@H](CO)[C@@H](O)[C@@H]1O
2. COc1ccc(Cc2nccc3cc(OC)c(OC)cc23)cc1OC
3. CCN1CCN(Cc2ccc(Nc3ncc(F)c(-c4cc(F)c5nc(C)n(C(C)C)c5c4)n3)nc2)CC1
4. COc1ccc(CNc2nc(N(CCO)CCO)nc3c2ncn3C(C)C)cc1
5. C[C@@H](Oc1cc(-c2cnn(C3CCNCC3)c2)cnc1N)c1c(Cl)ccc(F)c1Cl
6. C[C@@H](Oc1cc(-n2cnc3ccc(CN4CCN(C)CC4)cc32)sc1C(N)=O)c1ccccc1C(F)(F)F

Result:
1: 14.8 µM (active); 2: 11.8 µM (active); 3: 5.9 µM (active); 4: 8.33 µM (active); 5: 10.5 µM (active); 6: 0.105 µM (active)

# batch: return Potency for each of the 3 molecules below
1. Nc1nc(Cl)nc2c1ncn2[C@@H]1O[C@H](CO)[C@@H](O)[C@@H]1F
2. CCN(CC)CCOc1ccc(Cc2ccccc2)cc1
3. CN1CCN(c2ccc(C(=O)Nc3n[nH]c4ccc(Cc5cc(F)cc(F)c5)cc34)c(NC3CCOCC3)c2)CC1

Result:
["0.263 µM (active)", "16.6 µM (active)", "16.6 µM (active)"]
